Origin of values: ChEMBL document CHEMBL3745682

# TARGET DESC: Glycogen synthase kinase-3 beta (Homo sapiens)
# MEASUREMENT PROTOCOL: Inhibition of glycogen synthase kinase-3 beta (unknown origin) using GS-1 as substrate after 20 mins by scintillation counting analysis in presence of [gamma-32P]-ATP
EXPERIMENTAL ENDPOINT: IC50 (µM)
One number for each entry, in µM.

Please look up its IC50: `O=C(CBr)c1ccc(C2C(=O)c3ccccc3C2=O)cc1`
100

---

As an illustration, consider measured IC50 for compounds on Glycogen synthase kinase-3 beta (Homo sapiens, UniProt P49841).
Sequence (P49841 whole entry): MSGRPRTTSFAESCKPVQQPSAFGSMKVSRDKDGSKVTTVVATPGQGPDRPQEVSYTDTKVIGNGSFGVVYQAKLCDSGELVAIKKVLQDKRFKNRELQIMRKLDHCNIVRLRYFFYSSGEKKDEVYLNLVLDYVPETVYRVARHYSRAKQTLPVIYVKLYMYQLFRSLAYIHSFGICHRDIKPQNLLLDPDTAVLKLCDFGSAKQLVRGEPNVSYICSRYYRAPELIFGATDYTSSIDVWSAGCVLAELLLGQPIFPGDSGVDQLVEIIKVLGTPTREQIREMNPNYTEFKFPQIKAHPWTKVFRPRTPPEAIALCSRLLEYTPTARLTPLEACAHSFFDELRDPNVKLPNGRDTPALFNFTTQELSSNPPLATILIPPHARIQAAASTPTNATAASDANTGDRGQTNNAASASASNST
Answers are plain numbers, in nM.

O=C1Nc2ccccc2/C1=C1/Nc2cc(Br)ccc2C1=O ... 4

# ---- query compound ----
Please look up its IC50: `O=C1Nc2ccccc2/C1=C1/Nc2ccccc2C1=O`
4
